Biological target: MERTK (UniProt Q12866)
Sequence (Q12866 whole entry, looked up): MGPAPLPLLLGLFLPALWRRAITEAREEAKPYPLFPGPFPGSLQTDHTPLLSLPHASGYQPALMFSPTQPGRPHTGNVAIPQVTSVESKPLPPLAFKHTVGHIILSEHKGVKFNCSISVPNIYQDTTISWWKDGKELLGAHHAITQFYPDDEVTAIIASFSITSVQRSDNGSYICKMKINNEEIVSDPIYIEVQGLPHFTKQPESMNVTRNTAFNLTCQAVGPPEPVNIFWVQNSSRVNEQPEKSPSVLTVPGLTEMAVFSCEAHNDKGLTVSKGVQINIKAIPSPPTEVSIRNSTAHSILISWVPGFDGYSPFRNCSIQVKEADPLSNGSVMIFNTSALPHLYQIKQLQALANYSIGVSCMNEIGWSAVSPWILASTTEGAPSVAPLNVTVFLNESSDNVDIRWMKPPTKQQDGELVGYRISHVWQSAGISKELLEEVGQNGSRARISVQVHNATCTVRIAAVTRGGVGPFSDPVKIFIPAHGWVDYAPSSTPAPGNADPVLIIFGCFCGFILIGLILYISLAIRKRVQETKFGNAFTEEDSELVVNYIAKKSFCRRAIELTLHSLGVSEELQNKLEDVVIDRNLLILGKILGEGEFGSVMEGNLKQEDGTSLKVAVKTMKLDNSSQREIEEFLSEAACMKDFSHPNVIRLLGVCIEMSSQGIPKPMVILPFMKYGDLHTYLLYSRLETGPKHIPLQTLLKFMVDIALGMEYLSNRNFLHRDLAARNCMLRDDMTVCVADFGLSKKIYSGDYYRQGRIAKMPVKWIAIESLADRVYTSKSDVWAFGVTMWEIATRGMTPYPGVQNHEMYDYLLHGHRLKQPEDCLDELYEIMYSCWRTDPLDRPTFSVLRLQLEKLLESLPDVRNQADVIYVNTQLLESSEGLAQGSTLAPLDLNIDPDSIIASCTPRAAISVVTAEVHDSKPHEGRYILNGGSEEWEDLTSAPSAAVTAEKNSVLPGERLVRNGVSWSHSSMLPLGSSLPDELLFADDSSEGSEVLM
Assay: phosphorylation enrichment, bacterial display (enrichment ratio); higher = better substrate or ligand; peptides without Tyr show the background
So I've got a bunch of sequences here, and I need their phosphorylation enrichment values.
Just the number.

Inquiry: Lab note: need phosphorylation enrichment with MERTK (UniProt Q12866) for entry YDGKEYDPVEA [MAPRE2_Y167] , please look it up.
Reply text: 0.497

Inquiry: // fetch MERTK (UniProt Q12866) phosphorylation enrichment for QEKKGYFEDRR [GLUL_Y336]
Reply text: 0.605

Inquiry: Entry EAGKVYLKAAM [CBFB_Y96_P100A] , system MERTK (UniProt Q12866): what phosphorylation enrichment was measured?
Reply text: 0.333

Inquiry: Item: VAVVQYSGMGQ [COL6A1_Y878_T881M] Test system: MERTK (UniProt Q12866) Read-out: phosphorylation enrichment Value: ?
Reply text: 0.524

Inquiry: Short answer please: phosphorylation enrichment, MERTK (UniProt Q12866), entry NTQRPHYKGGG [TYROBP_Y111_Y111H]
Reply text: 0.391

Inquiry: // fetch MERTK (UniProt Q12866) phosphorylation enrichment for FSLIHYASIVD [MYH7_Y582_G584S]
Reply text: 0.475

Inquiry: # query: phosphorylation enrichment | item FRTPGYREVVI [TNS2_Y673_A670T_YF] | system: MERTK (UniProt Q12866)
Reply text: 0.546

Inquiry: For the record YKEDPYLVVNP [MCM6_Y810_E806K] , what value of phosphorylation enrichment is listed for MERTK (UniProt Q12866)?
Reply text: 0.455

Inquiry: Query the reported phosphorylation enrichment for MERTK (UniProt Q12866); item: IVKAFYVHARA [AIPL1_Y268_R270H_YF]
Reply text: 0.601

Inquiry: Query for MERTK (UniProt Q12866): what phosphorylation enrichment does the record show for SPFAVYLFFTF [RPGRIP1_Y826_R827L_YF] ?
Reply text: 0.34

Inquiry: I'm curious: which phosphorylation enrichment was measured for LTSVKYLLSAT [GSDMC_Y26_P23S] tested on MERTK (UniProt Q12866)?
Reply text: 0.376

Inquiry: // fetch MERTK (UniProt Q12866) phosphorylation enrichment for PAQAAYQKVVA [HBB_Y131_V127A]
Reply text: 0.349

Inquiry: Query for MERTK (UniProt Q12866): what phosphorylation enrichment does the record show for SVTCTYSPGLN [TP53_Y126_A129G] ?
Reply text: 0.454

Inquiry: Any idea what phosphorylation enrichment came out for ERLLDYTRTVQ [INPP5E_Y439] on MERTK (UniProt Q12866)?
Reply text: 0.365

====

Answer each item with its documented SH2 binding enrichment.
Target: SHP2-C SH2
Assay: SH2 binding enrichment of the phosphorylated peptide, bacterial display (enrichment ratio); higher = better substrate or ligand; peptides without Tyr show the background

Inquiry: # value lookup — system SHP2-C SH2, readout SH2 binding enrichment, item RIDPDYMGRVR [IGSF9_Y81_V82M]
Reply text: 0.629

Inquiry: Short answer please: SH2 binding enrichment, SHP2-C SH2, entry SSNLFYRWLTA [CNGA3_Y169_YF]
Reply text: 0.591

Inquiry: Could you share what SH2 binding enrichment was measured for TMKSRYMELFD [BBS2_Y644_YF] , tested on SHP2-C SH2?
Reply text: 0.634

Inquiry: Identify the measured SH2 binding enrichment of RRGTGYTLPLP [MAGEC3_Y152_S155P] for SHP2-C SH2.
Reply text: 0.607

Inquiry: SH2 binding enrichment of DAVCYYRMENA [NPHS2_Y195_I192V] on SHP2-C SH2?
Reply text: 0.648

Inquiry: Return SH2 binding enrichment measured with SHP2-C SH2 given this sequence: EQKRYYNAMKK [SCN5A_Y1495_K1493R]
Reply text: 0.899

Inquiry: Fill in the recorded SH2 binding enrichment for this sequence, with SHP2-C SH2 as test system: AELVRYYMEHH [PTPN11_Y80_Q79R]
Reply text: 0.875

Inquiry: # query: SH2 binding enrichment | item RAIGYYSATSK [FAM120A_Y328] | system: SHP2-C SH2
Reply text: 1.16

Inquiry: Item RQQEDYLLYKQ [RARRES1_Y159] with SHP2-C SH2 - SH2 binding enrichment?
Reply text: 0.842

Inquiry: Reported SH2 binding enrichment for SHP2-C SH2, given AMGPVYQAAAL [HYOU1_Y421_A419P] ?
Reply text: 0.826

Inquiry: Request - read-out SH2 binding enrichment | tested on SHP2-C SH2 | sequence IDPYTYTPFGS [CYP3A4_Y432_I431T]
Reply text: 0.885

Inquiry: Could you share what SH2 binding enrichment was measured for RFLERYIYNRQ [HLA-DPB1_Y57_E62Q] , tested on SHP2-C SH2?
Reply text: 1.2

Inquiry: Provide value of SH2 binding enrichment for this record tested with SHP2-C SH2: FPPDGYSRHFE [CTNND1_Y213_YF]
Reply text: 0.738

Inquiry: GET /values?readout=SH2 binding enrichment&system=SHP2-C SH2&item= FPPDGYSRHCE [CTNND1_Y213_Y217C_YF]
Reply text: 0.706

Inquiry: // lookup SH2 binding enrichment | system=SHP2-C SH2 | key= IYETDYYRKGG [INSR_Y1189]
Reply text: 0.621

Inquiry: Give SH2 binding enrichment (SHP2-C SH2) of the following sequence: PSTYRYERGSR [INPPL1_Y663_P659S]
Reply text: 0.492

Inquiry: Requested read-out SH2 binding enrichment, target or system SHP2-C SH2, entry FQNSLYAPDYS [FAM92A_Y226_R222Q]
Reply text: 1.17

Inquiry: // map RDLTDYLMKIL [ACTA1_Y190] to recorded SH2 binding enrichment (system: SHP2-C SH2)
Reply text: 1.37

Inquiry: What reported SH2 binding enrichment corresponds to PIAPVYAPSMV [ACAT1_Y331_A333P] on SHP2-C SH2?
Reply text: 0.718

Inquiry: SHP2-C SH2 / SH2 binding enrichment / PPKFFDTRKLL [CYBB_Y41_Y41D] : value?
Reply text: 1.17

Inquiry: Record lookup: for SHP2-C SH2, what SH2 binding enrichment belongs to YRVAGYETQGG [TIA1_Y383] ?
Reply text: 0.58

Inquiry: Give SHP2-C SH2 SH2 binding enrichment for ARAHKYHGGGG [HBB_Y146_L142R]
Reply text: 0.799

Inquiry: Please state recorded SH2 binding enrichment (tested on SHP2-C SH2) of PAQAAYQKVVA [HBB_Y131_V127A]
Reply text: 0.884

Inquiry: // map TDVSLYPSGGT [TENM4_Y399] to recorded SH2 binding enrichment (system: SHP2-C SH2)
Reply text: 0.8

Inquiry: Request body: readout SH2 binding enrichment, system SHP2-C SH2, query PIYLYYLMDLS [ITGB2_Y131_D128Y] . Return the value.
Reply text: 0.842

Inquiry: Missing value: SH2 binding enrichment, SHP2-C SH2, entry KVPAIYGVGTR [CPS1_Y162_D165G] . Fill in?
Reply text: 0.615

Inquiry: Lookup: SH2 binding enrichment / SHP2-C SH2 / RPFSPYIIRGM [LRP5_Y1531_R1529S_YF]
Reply text: 0.81

Inquiry: Short answer please: SH2 binding enrichment, SHP2-C SH2, entry WYQTKYEELQV [KRT6B_Y360_I365V]
Reply text: 0.834

Inquiry: What SH2 binding enrichment appears in the records for this sequence with SHP2-C SH2? NTCNRYCCDEI [ITGB3_Y660_R662C]
Reply text: 0.752

Inquiry: Field: SH2 binding enrichment (SHP2-C SH2). Entry: GRVLGYGAFGK [FLT4_Y853]
Reply text: 0.851

Inquiry: Give SH2 binding enrichment (SHP2-C SH2) of the following sequence: IEPGIYIPEDD [XPNPEP3_Y455]
Reply text: 0.819

Inquiry: // lookup SH2 binding enrichment | system=SHP2-C SH2 | key= APVEDYGGGGG [B4GALT6_Y382_I379V]
Reply text: 0.768

Inquiry: Give SHP2-C SH2 SH2 binding enrichment for VDASFCGGRGV [ANTXR2_Y381_Y381C_YF]
Reply text: 0.559

Inquiry: Notebook: pull reported SH2 binding enrichment for SHP2-C SH2, entry RQSTLYSFFPT [MSH6_Y8_K13T]
Reply text: 1.4

Inquiry: Query SH2 binding enrichment on SHP2-C SH2 for EALDFCGEVRT [PTEN_Y155_Y155C]
Reply text: 0.645

Inquiry: # returns recorded SH2 binding enrichment (system: SHP2-C SH2) for KLIETCFSKNF [PLP1_Y50_Y50C_YF]
Reply text: 0.561

Inquiry: API: value(readout=SH2 binding enrichment, system=SHP2-C SH2) for record QPSALYEDRYL [ASS1_Y83_S79P]
Reply text: 0.461

Inquiry: State its SH2 binding enrichment on SHP2-C SH2: QKDTFYGLRSL [IGSF10_Y126]
Reply text: 0.488

Inquiry: Recorded SH2 binding enrichment for YDCKWYIPLTD [BCR_Y756] with SHP2-C SH2, please?
Reply text: 0.707

Inquiry: Lab note: need SH2 binding enrichment for ENELTYFCCKK [CD59_Y86_YF] on SHP2-C SH2, anyone have it?
Reply text: 0.935

Inquiry: Short answer please: SH2 binding enrichment, SHP2-C SH2, entry GLNKGYRMVVN [HINT1_Y94]
Reply text: 0.503

Inquiry: For SHP2-C SH2, provide SH2 binding enrichment of NGSKAYAYVHF [PABPC5_Y147_G146A] please.
Reply text: 18.8

Inquiry: Item VSYGEYRYRSV [CFTR_Y515_D513G] with SHP2-C SH2 - SH2 binding enrichment?
Reply text: 0.369

Inquiry: Observed SH2 binding enrichment on SHP2-C SH2 for SEDSEYFKAFE [CASQ2_Y178_YF] , please.
Reply text: 0.709

Inquiry: Report SH2 binding enrichment for CGTPTCLAPEV [CHEK2_Y390_Y390C] tested on SHP2-C SH2.
Reply text: 0.932

Inquiry: Lab request: please report SH2 binding enrichment under test system SHP2-C SH2 for SVVVPYELPEV [TP53_Y220_P222L];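 further: peptide library displayed on the E. coli surface as eCPX fusions, selected cells deep-sequenced, score is each peptide's frequency after selection divided by its frequency in the input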
Reply text: 0.614

FYI, the data here is from the supplement of paper PMC10065799.
